- experimentDescription: viability profiling in MM1S myeloma cells – cell-based, resazurin fluorescence, basal, 24 h, PK04 Diversity Set, profiling panel (AID 1174);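 note: MM1S multiple myeloma cell line; test concentration not given here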
- testContext: called active from +8 up or from −8 down
The source made the active and inactive calls.
Output constraint: value belongs to yes (1) (active), no (0) (inactive)

A selection of reference data follows.
Inquiry: Hi, do you know how `CC(C)C[C@@H]1NC(=O)[C@@H]2C[C@H](C(=O)NCCCCN(C)C)[C@H](c3ccc(O)cc3)N2C1=O` came out in this test?
Reply text: no (0)

Inquiry: Next entry: `C=CCN1Cc2ccccc2C[C@@]2(COC(c3ccc(OCCCO)cc3)=N2)C1=O`
Reply text: yes (1)

Inquiry: Next entry: O=C1C2C=CC(C(O)c3cccc4ccccc34)N(n3cnnc3)C2C(=O)N1Cc1ccccc1 (configuration not stated)
Reply text: no (0)

Inquiry: Next entry: `C=C(CCCC)/C(=C/C[C@H](OC(C)=O)c1ccc(CO)o1)c1cc(C(=O)OC)ccc1OC`
Reply text: no (0)

Inquiry: Next entry: `COC(=O)[C@@]1(Cc2ccccc2)[C@H]2c3cc(C(=O)N(C)C)n(Cc4cc(F)c(F)c(F)c4)c3C[C@H]2CN1C(=O)c1ccccc1`
Reply text: no (0)

Inquiry: Next entry: `COCCOC(=O)N1C(=O)[C@@]2(c3ccccc31)[C@H](C(=O)N1CCCCCCC1)[C@H]1C(=O)O[C@H](c3ccccc3)[C@H](c3ccccc3)N1[C@@H]2c1ccccc1OCCO`
Reply text: no (0)

---
Inquiry: Hi, do you know how `COCCOC(=O)N1C(=O)[C@@]2(c3ccccc31)[C@H](c1ccc(O)cc1)N1[C@H](c3ccccc3)[C@H](c3ccccc3)OC(=O)[C@H]1[C@@H]2C(N)=O` came out in this test?
Reply text: no (0)

====

- testTarget: Fibroblast growth factor 10 (Homo sapiens)
- experimentDescription: compounds binding fibroblast growth factor 10 – biochemical, small-molecule microarray, 635 nm fluorescence, primary screen (AID 1102)
- testContext: FGF10 binding, fluorescence 635 nm, higher = more signal
readoutLabel: composite z-score
Numbers only.

Sample answers from the record:
Inquiry: Enter reported composite z-score observed with Fibroblast growth factor 10 (Homo sapiens) for CCCCCCCCCCC(O)C1C=CC2C(=O)N(c3ccccc3)C(=O)C2N1Nc1ccc([N+](=O)[O-])cc1 (stereo not drawn)
Reply text: 0.668

Inquiry: Next entry: `C#C[C@H]1Oc2ccccc2S(=O)(=O)N2CCC[C@@H]12`
Reply text: -0.0502

---
Inquiry: Enter reported composite z-score observed with Fibroblast growth factor 10 (Homo sapiens) for `O=C1C[C@@](C(=O)O)(c2ccc([N+](=O)[O-])cc2)[C@@H](c2ccc(CO)cc2I)N1C1CCCCC1`
Reply text: 1.27

====

- experimentDescription: COS7 lysate on small-molecule microarray, probe aHis, 635 nm (AID 1123);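 note: z-score combines 667nm fluorescence intensity with signal-to-noise per printed compound spot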
- testContext: COS7 cell lysate, fluorescence, higher = more signal
readoutLabel: composite z-score
Answers are plain numbers.

Inquiry: Form field: reported composite z-score of `CC(C)C(=C=CC[C@H](O)c1ccccc1OCCO)CCO`
Reply text: 0.989

Inquiry: Next entry: O=C1OCC=C[C@H]2OC34C=CCN(Cc5ccccc5)C(=O)[C@H]3N(CCCO)C(=O)[C@@H]4[C@@H]12 (some centres not stated)
Reply text: 3.07

Provide the reported composite z-score of each entry below, same order.
1. C=C(C(=O)CC[C@@H](OC(C)=O)c1ccc(OCCO)cc1)C(C)C
2. O=C1NC(=O)C2C1C=CC(C(O)c1cccs1)N2Nc1ccccn1 (configuration not stated)
3. C=CC[C@@]1(C(N)=O)N=C(c2ccc(OCCCO)cc2)O[C@@H]1c1ccccc1N=[N+]=[N-]
4. COC(=O)c1nc2oc1CC[C@@H](CO)NC(=O)N(C)Cc1cn(nn1)C[C@H](Cc1ccccc1)NC2=O

Reply text:
1. 1.57
2. 1.21
3. 1.64
4. 1.02

Provide the reported composite z-score of each entry below, same order.
1. CN1C(=O)C2C=CC(C(O)C3=C[C@H]4C[C@@H](C3)C4(C)C)N(Nc3ccc([N+](=O)[O-])cc3[N+](=O)[O-])C2C1=O (some centres not stated)
2. C=C[C@H](C)[C@H](O)c1ccc(OCCO)cc1
3. CC[C@@H]1C=C(C(=O)O)[C@H](c2ccc(C(C)C)cc2)N1S(=O)(=O)c1ccc(C)cc1
4. O=C1OCCC=C[C@H]2OC34C=CCN(CCN5CCOCC5)C(=O)[C@H]3N(CCO)C(=O)[C@@H]4C12 (some centres not stated)
5. CC1CC/C=C\[C@H]2OC34C=CCN(CCN5CCOCC5)C(=O)[C@H]3N(CCCCCO)C(=O)[C@@H]4C2C(=O)O1 (some centres not stated)
6. Cc1ccccc1/C=C/C=O

Reply text:
[2.38, -1.09, 2.85, -0.219, -0.471, -0.256]

Provide the reported composite z-score of each entry below, same order.
1. C=C(CCCC)C(=O)CC[C@H](OC(=O)c1ccccc1-c1ccccc1C(=O)O)c1ccc(CO)o1
2. COCCOC(=O)N1C(=O)[C@@]2(c3cc(C#Cc4ccc(OC)cc4)ccc31)[C@H](c1ccc(OCCO)cc1)N1[C@H](c3ccccc3)[C@H](c3ccccc3)OC(=O)[C@H]1[C@@H]2C(=O)N1CCc2cc(OC)c(OC)cc2C1
3. COC(=O)[C@@]1(Cc2ccccc2)[C@H]2c3cc(C(=O)N(C)C)n(Cc4cc(F)c(F)c(F)c4)c3C[C@H]2CN1C(=O)c1ccccc1
4. COC(=O)[C@@]1(Cc2ccc(OC)cc2)[C@H]2c3cc(C(=O)N4CCCC4)n(CCc4ccccn4)c3C[C@H]2CN1C(=O)c1ccccc1
5. [N-]=[N+]=NCc1ccccc1C[C@]1(C(=O)NCC(O)CO)COC(c2ccc(OCCCO)cc2)=N1 (some centres not stated)

Reply text:
[0.455, 0.875, 2.8, 3.52, 3.3]
